measuredOn: T1, VEGF-D (recombinant human; source not given) (human, UniProt O43915 89-205, limits assumed)
T1 construct: also used here as target of IC50 values averaged over Source 1 and Source 2; also called vascular endothelial growth factor-D
T1 sequence: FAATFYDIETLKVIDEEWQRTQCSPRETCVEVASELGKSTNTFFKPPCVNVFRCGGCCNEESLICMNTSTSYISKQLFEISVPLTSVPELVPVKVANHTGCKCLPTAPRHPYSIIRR
assay: SPR (BIAcore), VEGF-D amine-coupled on CM5, purified scFv as analyte
Experimental: scFv variants were fully characterized using a BIAcore™ biosensor. All isolated scFv samples were purified as monomer peaks by anti-FLAG affinity chromatography followed by gel filtration chromatography. […] Clones F61, A63, AR7, AW61, CJ37, DI126 and DA18 were produced in large-scale expression cultures and purified by anti-FLAG affinity chromatography and gel filtration. The binding kinetics against VEGF-D were then measured using a BIAcore™ biosensor as described previously.
quantityKind: kon (M⁻¹ s⁻¹)
# value in M⁻¹ s⁻¹; strip the unit string

Please fill in: kon reported for scFv clone AR74 (scFv) scFv: QVQLVQSGAEVKQPGASVKVSCKASGYTFTGYNMYWVRQAPGQGLEWMGYIDPYNGDTTYNQKFKGRVTMTTGTSTSTAYMKLRSLRSDDTAVYYCARASYYGGMDYWGRGTLVTVASGGGASGGGGSGGGGSDIVMTQTPLSSPVTLGQPASISCRSSQSLVHSNGNTYLHWLQQRPGQPPRLLIYKVSNRFSGVPDRFSGSGAGTDFTLKISRVEAEDVGVYYCSQSTHVPRTFGQGTKLEIKR = 1.79e+06
